Measured half-life at 1 µM, listed per entry.
Assay: Metabolic stability in pre-warmed pooled mouse liver microsomes assessed as half life at 1 uM measured upto 60 mins by LC-MS analysis
Format: ADME, Microsome

{"compound smiles": "COC1=CC(c2ccc[nH]2)=N/C1=C\\Nc1ccc(Cl)c(OC)c1.Cl", "half-life at 1 µM": "> 60 min"}

Complete the entry with half-life at 1 µM for `CCc1ccc(C2=N/C(=C\NC3CCCCCCC3)C(C)=C2C)[nH]1.Cl`
> 60 min

Return half-life at 1 µM for the following compound: `COC1=CC(c2ccc[nH]2)=N/C1=C\Nc1ccc2c(c1)OCCO2.Cl`
15.8 min

Please indicate half-life at 1 µM recorded for `COC1=CC(c2ccc[nH]2)=N/C1=C\Nc1ccc(Oc2ccc(OC)cc2)cc1`
30.1 min

* * *

Assay: Cytotoxicity against mouse J774.A1 cells assessed as reduction in cell survival measured after 96 hrs by SYBR Green II dye based analysis
Assay type: toxicity
Listing of entries alongside the reported EC50 at 96 h.
All answers are understood in µM, so give the number only.

{"compound smiles": "CCc1c[nH]c(C2=N/C(=C\\NC3CCCCCC3)C(C)=C2C)c1.Cl", "EC50 at 96 h, µM": 1.33}

Determine its reported EC50 at 96 h: `CCC1=C/C(=C\NC23CC4CC(CC(C4)C2)C3)N=C1c1ccc[nH]1`
0.884

Please list EC50 at 96 h recorded for the compound `COC1=CC(c2ccc[nH]2)=N/C1=C\NC1CCCCCC1.Cl`
0.55

Note down EC50 at 96 h recorded for `CC1=C/C(=C\NC23CC4CC(CC(C4)C2)C3)N=C1c1ccc[nH]1.Cl`
1.13

* * *

Assay: Metabolic stability in pre-warmed pooled human liver microsomes assessed as half life at 1 uM measured upto 60 mins by LC-MS analysis
Assay type: ADME, Microsome
Entries and their measured half-life at 1 µM follow.

Example entries begin here.
{"compound smiles": "COC1=CC(c2ccc[nH]2)=N/C1=C\\Nc1ccc(OC(F)(F)F)cc1.Cl", "observed measurement": "> 1 h"}
{"compound smiles": "C(/NC1CCCCCC1)=C1/N=C(c2ccc[nH]2)C2=C1CCCC2.Cl", "observed measurement": "> 1 h"}
{"compound smiles": "CCc1ccc(C2=N/C(=C\\NC3CCCCCC3)C(OC)=C2)[nH]1.Cl", "observed measurement": "> 1 h"}
{"compound smiles": "COC1=CC(c2ccc[nH]2)=N/C1=C\\Nc1ccc(F)c(OC)c1.Cl", "observed measurement": "> 1 h"}

The record that follows has no half-life at 1 µM shown yet.
Supply reported half-life at 1 µM belonging to this compound: `C(/NC1CCCCC1)=C1/N=C(c2ccc[nH]2)C2=C1CCCC2.Cl`
0.445 h

* * *

Experiment: Cytotoxicity against mouse J774.A1 cells assessed as cell survival at 0.1 uM measured after 96 hrs by SYBR Green II dye based analysis relative to control
Type: toxicity
Details: read-out: Survival
viability at 96 h, 0.1 µM by entry:
Respond numerically; units are % and should not be typed.

// known answers, use as guide
{"compound smiles": "Cl.Clc1ccc(OC2=CC(c3ccc[nH]3)=N/C2=C\\NC23CC4CC(CC(C4)C2)C3)cc1", "units of measure": "%", "viability at 96 h, 0.1 µM": 67.1}
{"compound smiles": "FC(F)(F)Oc1ccc(OC2=CC(c3ccc[nH]3)=N/C2=C\\NC2CCCCC2)cc1", "units of measure": "%", "viability at 96 h, 0.1 µM": 81.3}
{"compound smiles": "COC1=CC(c2ccc[nH]2)=N/C1=C\\Nc1ccc(OC(F)(F)F)cc1.Cl", "units of measure": "%", "viability at 96 h, 0.1 µM": 89.6}
{"compound smiles": "CC1=C(C)/C(=C/NC2CCCCCC2)N=C1c1ccc[nH]1.Cl", "units of measure": "%", "viability at 96 h, 0.1 µM": 62.8}
{"compound smiles": "C(/NC1CCCCCCC1)=C1/N=C(c2ccc[nH]2)C2=C1CCCC2", "units of measure": "%", "viability at 96 h, 0.1 µM": 75.8}

For `CCCCCCN/C=C1\N=C(c2ccc[nH]2)C=C1Oc1ccc(OC(F)(F)F)cc1` , write its viability at 96 h, 0.1 µM.
110

Please give measured viability at 96 h, 0.1 µM of the following entry: `FC(F)(F)Oc1ccc(OC2=CC(c3ccc[nH]3)=N/C2=C\NC2CCCCCCC2)cc1`
92.9

Answer with the recorded viability at 96 h, 0.1 µM of `COC1=CC(c2ccc(Cc3ccc(OC)cc3)[nH]2)=N/C1=C\NC1CCCCCCC1.Cl` only.
84.8
